# system: UniProt P29990
# condition-context: Thailand/16681/1984, Concentration 200.0 uM, Number of replicates 1.0
reported-metric: inhibition (%)
Give your result in % as a bare value.

>  <molecular-string>
c1cc2sccc2c(N2CCN(Cc3ccc4cn[nH]c4c3)CC2)n1

>  <unit-tag>
%

>  <inhibition>
-0.953

$$$$
>  <molecular-string>
[O-][S@@+](Cc1ncccn1)c1ncccc1Br

>  <unit-tag>
%

>  <inhibition>
-0.101

$$$$
>  <molecular-string>
Cc1nnsc1Cn1ccc(Br)n1

>  <unit-tag>
%

>  <inhibition>
-4.2

$$$$
>  <molecular-string>
c1ccc2[nH]c(CC3CCN(Cc4nccs4)CC3)nc2c1

>  <unit-tag>
%

>  <inhibition>
-8.35

$$$$

Prompt: Item under review: `O=c1oc2cccnc2n1CC=Cc1ccccc1` . Reported inhibition?
Completion: 16.8

Prompt: Item under review: `c1ccc2nc(SCc3cn4ccccc4n3)cnc2c1` . Reported inhibition?
Completion: 30.9

Prompt: Item under review: `FC(F)(F)c1nnc(COc2cncnc2)s1` . Reported inhibition?
Completion: -8.02
